Ref: ChEMBL document CHEMBL5614394

System: Staphylococcus aureus
Assay: Antibacterial activity against Staphylococcus aureus ATCC 29213 assessed as inhibition of visible growth of bacteria incubated for 24 hrs by CLSI protocol based broth-dilution method
Assay type: functional
# MIC per record follows
Please answer using the number first and the unit second.

Check out these entries, answers already filled in.
# Smiles, MIC
data = [
    ("C=C[C@]1(C)C[C@@H](OC(=O)CSc2cccc(NC(=O)c3ccc(B(O)O)c(F)c3F)c2)[C@]2(C)[C@H](C)CC[C@]3(CCC(=O)[C@H]32)[C@@H](C)[C@@H]1O", "0.031 µg/mL"),
    ("C=C[C@]1(C)C[C@@H](OC(=O)CSc2ccc(NC(=O)c3ccc(B(O)O)c(F)c3)cc2)[C@]2(C)[C@H](C)CC[C@]3(CCC(=O)[C@H]32)[C@@H](C)[C@@H]1O", "0.063 µg/mL"),
    ("C=C[C@]1(C)C[C@@H](OC(=O)CSc2cccc(NC(=O)c3ccc(B(O)O)o3)c2)[C@]2(C)[C@H](C)CC[C@]3(CCC(=O)[C@H]32)[C@@H](C)[C@@H]1O", "0.5 µg/mL"),
    ("C=C[C@]1(C)C[C@@H](OC(=O)CSC(C)(C)CNC(=O)c2ccc3c(c2)B(O)OC3)[C@]2(C)[C@H](C)CC[C@]3(CCC(=O)[C@H]32)[C@@H](C)[C@@H]1O", "0.063 µg/mL"),
    ("C=C[C@]1(C)C[C@@H](OC(=O)CSc2cccc(NC(=O)Cc3cccc(B(O)O)c3)c2)[C@]2(C)[C@H](C)CC[C@]3(CCC(=O)[C@H]32)[C@@H](C)[C@@H]1O", "0.063 µg/mL"),
]

q: For C=C[C@]1(C)C[C@@H](OC(=O)CSc2cccc(NC(=O)c3ccc(B(O)O)cc3F)c2)[C@]2(C)[C@H](C)CC[C@]3(CCC(=O)[C@H]32)[C@@H](C)[C@@H]1O , write its MIC.
a: 0.063 µg/mL

---

Assay: Stability in mouse liver microsomes assessed as drug metabolism at 1 uM measured within 1 hrs in presence of NADPH by LC-MS analysis
Assay type: ADME, Microsome
Conditions: read-out: Drug metabolism
# metabolised at 1 h, 1 µM annotations
Provide the reading as a plain figure in %.

# Smiles, Unit Tag, metabolised at 1 h, 1 µM
data = [
    ("C=C[C@]1(C)C[C@@H](OC(=O)CSc2cccc(NC(=O)c3ccc(B(O)O)cc3)c2)[C@]2(C)[C@H](C)CC[C@]3(CCC(=O)[C@H]32)[C@@H](C)[C@@H]1O", "%", 87.5),
    ("C=C[C@]1(C)C[C@@H](OC(=O)CSc2cccc(NC(=O)c3ccc4c(c3)B(O)OC4)c2)[C@]2(C)[C@H](C)CC[C@]3(CCC(=O)[C@H]32)[C@@H](C)[C@@H]1O", "%", 67.2),
]

With those in mind, consider the next compound.
q: Recall and state the measured metabolised at 1 h, 1 µM for C=C[C@]1(C)C[C@@H](OC(=O)CS[C@@H]2CC[C@@H](N)C[C@H]2O)[C@]2(C)[C@H](C)CC[C@]3(CCC(=O)[C@H]32)[C@@H](C)[C@@H]1O .
a: 41.4

---

Tested on: Enterococcus faecium
Experiment: Antibacterial activity against pleuromutilin-resistant Enterococcus faecium 18FJZ1-1 harboring (lsa(E)+) genotype assessed as inhibition of visible growth of bacteria incubated for 24 hrs by CLSI protocol based broth-dilution method
Type: functional
Measured Parameter: MIC (µg/mL)
Could you give me the number in µg/mL? Just the number is fine.

# Compound, Unit Tag, MIC
measured = [
    ("C=C[C@]1(C)C[C@@H](OC(=O)CSc2cccc(NC(=O)c3ccc(B(O)O)cc3)c2)[C@]2(C)[C@H](C)CC[C@]3(CCC(=O)[C@H]32)[C@@H](C)[C@@H]1O", "µg/mL", 0.5),
    ("C=C[C@]1(C)C[C@@H](OC(=O)CS[C@@H]2C[C@H]3CC[C@@H](C2)N3C)[C@]2(C)[C@H](C)CC[C@]3(CCC(=O)[C@H]32)[C@@H](C)[C@@H]1O [RETAPAMULIN]", "µg/mL", 32),
    ("C=C[C@]1(C)C[C@@H](OC(=O)CSc2cccc(NC(=O)c3ccc4c(c3)B(O)OC4)c2)[C@]2(C)[C@H](C)CC[C@]3(CCC(=O)[C@H]32)[C@@H](C)[C@@H]1O", "µg/mL", 2),
    ("C=C[C@]1(C)C[C@@H](OC(=O)CSC(C)(C)CNC(=O)[C@H](N)C(C)C)[C@]2(C)[C@H](C)CC[C@]3(CCC(=O)[C@H]32)[C@@H](C)[C@@H]1O [VALNEMULIN]", "µg/mL", 8),
]

q: Please give measured MIC of the following entry: C=C[C@]1(C)C[C@@H](OC(=O)CSC(C)(C)CNC(=O)c2ccc3c(c2)B(O)OC3)[C@]2(C)[C@H](C)CC[C@]3(CCC(=O)[C@H]32)[C@@H](C)[C@@H]1O
a: 8
